From: patent US20120095022A1

Test system: MDA-MB 231 (breast)
protocol text: Cytotoxicity on human cells, automated nuclei counting: MDA-MB 231
Assay type: cell-based
test context: MDA-MB 231 cells, exposed 24 h to 48 h, 0.1 to 25 μM
observation type: IC50 (µM)
Answers are plain numbers, in µM.

For orientation, consider the following solved cases.
## Input Quick one: IC50 of O=C(Nc1cnccn1)Nc1cccc2c1C1C[C@@H](O)CCN1C2=O (stereo partly shown) ?
## Output 25

## Input Consider next the compound COc1cc(NC(=O)Nc2cccc3c2C2CC4(CCN2C3=O)SCCS4)nc2ccccc12 (stereo not shown) in the same way.
## Output 20

## Input Consider next the compound O=C(Nc1cccc(Br)n1)Nc1cccc2c1C1CC3(CCN1C2=O)OCCO3 (stereo not shown) in the same way.
## Output 20

***
## Input Quick one: IC50 of O=C1c2cccc(NC(=S)Nc3cc[nH]n3)c2C2CC3(CCN12)SCCS3 (stereo not shown) ?
## Output 15

====

Please respond with reported melting point for every item in the list.

For orientation, consider the following solved cases.
## Input Quick one: melting point of COC1CCN2C(=O)c3cccc(NC(=O)Nc4cnc(C)cn4)c3C2C1 (stereo not drawn) ?
## Output 140 to 142 °C

## Input Consider next the compound O=C(Nc1cc(O)c2ccccc2n1)Nc1cccc2c1C1CC(O)CCN1C2=O (stereo not drawn) in the same way.
## Output > 260 °C

## Input Consider next the compound O=C(Nc1cc(-c2ccccc2)on1)Nc1cccc2c1C1CCCCN1C2=O (stereo not drawn) in the same way.
## Output 248 °C

Batch: melting point for all items listed.
1. COc1cc(NC(=O)Nc2cccc3c2C2CC4(CCN2C3=O)OCCO4)nc2ccccc12 (stereo not drawn)
2. O=C(Nc1cccc(Br)n1)Nc1cccc2c1C1CCCCN1C2=O (stereo not drawn)
3. Cc1cccnc1NC(=O)Nc1cccc2c1C1CC3(CCN1C2=O)OCCO3 (stereo not drawn)
4. O=C1CCN2C(=O)c3cccc(NC(=O)Nc4cc(O)c5ccccc5n4)c3C2C1 (stereo not drawn)
5. Cc1cc(NC(=O)Nc2cccc3c2C2CCCCN2C3=O)no1 (stereo not drawn)
6. O=C1c2cccc(NC(=S)Nc3ccccn3)c2C2CCCCN12 (stereo not drawn)

## Output
["258 to 260 °C", "218 to 220 °C", "> 260 °C", "> 260 °C", "156 °C", "195 °C"]

====

System: HCT 116 (colon)
protocol text: Cytotoxicity on human cells, automated nuclei counting: HCT 116
Assay type: cell-based
test context: HCT 116 cells, exposed 24 h to 48 h, 0.1 to 25 μM
observation type: IC50 (µM)
One number for each entry, in µM.

Batch: IC50 for all items listed.
1. O=C1c2cccc(NC(=S)Nc3cnccn3)c2C2CC3(CCN12)SCCS3 (stereo not drawn)
2. O=C(Nc1cccc2c1C1CCCCN1C2=O)Nc1ncccc1Br (stereo not drawn)
3. COc1cc(NC(=O)Nc2cccc3c2C2CC(O)CCN2C3=O)nc2ccccc12 (stereo not drawn)
4. O=C(Nc1cccc(Br)n1)Nc1cccc2c1C1CC3(CCN1C2=O)OCCO3 (stereo not drawn)

## Output
[15, 0.4, 1, 6]

====

Tested on: HCT 116 (colon)
protocol text: Cytotoxicity on human cells, automated nuclei counting: HCT 116
Format: cell-based
test context: HCT 116 cells, exposed 24 h to 48 h, 0.1 to 25 μM
observation type: IC50 (µM)
Give bare numbers, in µM.

For orientation, consider the following solved cases.
## Input Quick one: IC50 of Cc1cccc(NC(=O)Nc2cccc3c2C2CC(O)CCN2C3=O)n1 (stereo not drawn) ?
## Output 3

## Input Consider next the compound COc1cc(NC(=O)Nc2cccc3c2C2CC4(CCN2C3=O)OCCO4)nc2ccccc12 (stereo not drawn) in the same way.
## Output 8

## Input Consider next the compound O=C(Nc1cnccn1)Nc1cccc2c1C1C[C@@H](O)CCN1C2=O (stereo partly drawn) in the same way.
## Output 8

## Input Consider next the compound Cc1nc(NC(=O)Nc2cccc3c2C2CCCCN2C3=O)cs1 (stereo not drawn) in the same way.
## Output 0.6

Batch: IC50 for all items listed.
1. O=C1c2cccc(NC(=S)Nc3cc[nH]n3)c2C2CC3(CCN12)SCCS3 (stereo not drawn)
2. COC1CCN2C(=O)c3cccc(NC(=O)Nc4ncccc4C)c3C2C1 (stereo not drawn)
3. O=C(Nc1csc(-c2ccncc2)n1)Nc1cccc2c1C1CCCCN1C2=O (stereo not drawn)
4. O=C(Nc1ccccn1)Nc1cccc2c1C1CC3(CCN1C2=O)SCCS3 (stereo not drawn)

## Output
1: 7; 2: 1; 3: 0.7; 4: 10
